# tested_on: [35S]-TBPS binding, rat brain cortical membranes
# assay_remarks: Steroid inhibition of [35S]-TBPS binding
# condition_summary: 3 nM [35S]-TBPS, in the presence of 5 mM GABA
pIC50: −log10 of the molar value.
observed_property: pIC50

The reported value for C[C@@]1(O)CC[C@H]2[C@H](CC[C@@H]3[C@@H]2CC[C@]2(C)[C@@H]([C@H](C#N)Cn4cc(C#N)cn4)CC[C@@H]32)C1 in terms of pIC50 is > 7.00

The reported value for C[C@@H](N[C@H](C)[C@H]1CC[C@H]2[C@@H]3CC[C@@H]4C[C@](C)(O)CC[C@@H]4[C@H]3CC[C@]12C)c1ccccc1 in terms of pIC50 is 6.00 to 7.00

The reported value for CCOC[C@@]1(O)CC[C@H]2[C@H](CC[C@@H]3[C@@H]2CC[C@]2(C)[C@@H]([C@H](CC)Cn4nccc4C#N)CC[C@@H]32)C1 in terms of pIC50 is 6.00 to 7.00

The reported value for COC[C@@]1(O)CC[C@H]2[C@H](CC[C@@H]3[C@@H]2CC[C@]2(C)[C@@H]([C@H](C)NC(=O)c4ccc(OC(F)(F)F)cc4)CC[C@@H]32)C1 in terms of pIC50 is 6.00 to 7.00

The reported value for COC[C@@]1(O)CC[C@H]2[C@H](CC[C@@H]3[C@@H]2CC[C@]2(C)[C@@H]([C@H](C)Nc4ccc(C#N)cc4)CC[C@@H]32)C1 in terms of pIC50 is 6.00 to 7.00

The reported value for Cc1cncc(C[C@@H](C)[C@H]2CC[C@H]3[C@@H]4CC[C@@H]5C[C@](C)(O)CC[C@@H]5[C@H]4CC[C@]23C)c1 in terms of pIC50 is 6.00 to 7.00

***
The reported value for CCOC[C@@]1(O)CC[C@@]2(C)[C@H](CC[C@@H]3[C@@H]2CC[C@]2(C)[C@@H]([C@@H](C)NS(=O)(=O)c4ccc(C#N)cn4)CC[C@@H]32)C1 in terms of pIC50 is > 7.00

The reported value for CC[C@@]1(O)CC[C@@]2(C)[C@H](CC[C@@H]3[C@@H]2CC[C@]2(C)[C@@H]([C@H](C)Cn4ccc(C#N)n4)CC[C@@H]32)C1 in terms of pIC50 is > 7.00

The reported value for C[C@@H](Cc1ncc(CO)s1)[C@H]1CC[C@H]2[C@@H]3CC[C@@H]4C[C@](C)(O)CC[C@@H]4[C@H]3CC[C@]12C in terms of pIC50 is > 7.00

The reported value for CCC[C@@]1(O)CC[C@@]2(COC)[C@H](CC[C@H]3[C@@H]4CC[C@H]([C@@H](C)Cn5nnnc5C)[C@@]4(C)CC[C@@H]32)C1 in terms of pIC50 is > 7.00

###

# tested_on: [35S]-TBPS binding, rat brain cortical membranes
# assay_remarks: Steroid inhibition of [35S]-TBPS binding
# condition_summary: 3 nM [35S]-TBPS, in the presence of 5 mM GABA
Reported IC50 values for the following molecules.

Consider the worked cases shown below.
The reported value for CCC[C@@]1(O)CC[C@@]2(C)[C@H](CC[C@@H]3[C@@H]2CC[C@]2(C)[C@@H]([C@H](C)Cn4nnc(C)n4)CC[C@@H]32)C1 in terms of IC50 is 100 to 1000 nM

The reported value for C[C@H](Cc1cncc(C#N)c1)[C@H]1CC[C@H]2[C@@H]3CC[C@@H]4C[C@](C)(O)CC[C@@H]4[C@H]3CC[C@]12C in terms of IC50 is < 100 nM

The reported value for C[C@@H]([C@H]1CC[C@H]2[C@@H]3CC[C@@H]4C[C@](C)(O)CC[C@@H]4[C@H]3CC[C@]12C)n1ncc(C#N)c1N in terms of IC50 is 1000 to 10000 nM

The reported value for CCOC[C@@]1(O)CC[C@H]2[C@H](CC[C@@H]3[C@@H]2CC[C@]2(C)[C@@H]([C@@H](C)Cn4nnc(C)n4)CC[C@@H]32)C1 in terms of IC50 is < 100 nM

The reported value for CCOC[C@@]1(O)CC[C@H]2[C@H](CC[C@@H]3[C@@H]2CC[C@]2(C)[C@@H]([C@@H](C)N[C@H](C)c4ccccc4)CC[C@@H]32)C1 in terms of IC50 is 100 to 1000 nM

The reported value for CCC[C@@]1(O)CC[C@H]2[C@H](CC[C@@H]3[C@@H]2CC[C@]2(C)[C@@H]([C@@H](C)Nc4ccc(C#N)cn4)CC[C@@H]32)C1 in terms of IC50 is 100 to 1000 nM

The reported value for CCOC[C@@]1(O)CC[C@H]2[C@H](CC[C@@H]3[C@@H]2CC[C@]2(C)[C@@H]([C@@H](C)N4Cc5cc(C#N)ccc5C4=O)CC[C@@H]32)C1 in terms of IC50 is 100 to 1000 nM

The reported value for CCOC[C@@]1(O)CC[C@H]2[C@H](CC[C@@H]3[C@@H]2CC[C@]2(C)[C@@H]([C@@H](C)NS(=O)(=O)c4cccc(C#N)c4)CC[C@@H]32)C1 in terms of IC50 is < 100 nM

Alright, here's another molecule for you.
The reported value for CC[C@]12CC[C@@](C)(O)C[C@H]1CC[C@H]1[C@@H]3CC[C@H](C(C)Cn4cc(C#N)cn4)[C@@]3(C)CC[C@@H]12 (stereo in doubt) [Example 325] in terms of IC50 is < 100 nM

###

Reported IC50 values for the following compounds.
# tested_on: [35S]-TBPS binding, rat brain cortical membranes
# assay_remarks: Steroid inhibition of [35S]-TBPS binding
# condition_summary: 3 nM [35S]-TBPS, in the presence of 5 mM GABA

Consider the worked cases shown below.
The reported value for C[C@@]1(O)CC[C@H]2[C@H](CC[C@@H]3[C@@H]2CC[C@]2(C)[C@@H](CN4C[C@H](c5ccccc5)CC4=O)CC[C@@H]32)C1 [Example 10] in terms of IC50 is 100 to 1000 nM

The reported value for C[C@@H](NC(=O)c1ccccc1F)[C@H]1CC[C@H]2[C@@H]3CC[C@@H]4C[C@](C)(O)CC[C@@H]4[C@H]3CC[C@]12C [Example 103] in terms of IC50 is < 100 nM

The reported value for COc1cccc(C(=O)N[C@H](C)[C@H]2CC[C@H]3[C@@H]4CC[C@@H]5C[C@](C)(O)CC[C@@H]5[C@H]4CC[C@]23C)c1 [Example 104] in terms of IC50 is < 100 nM

The reported value for C[C@H](Nc1cccnc1)[C@H]1CC[C@H]2[C@@H]3CC[C@@H]4C[C@](C)(O)CC[C@@H]4[C@H]3CC[C@]12C [Example 204] in terms of IC50 is 100 to 1000 nM

The reported value for CCOC[C@@]1(O)CC[C@H]2[C@H](CC[C@@H]3[C@@H]2CC[C@]2(C)[C@@H]([C@@H](C)NC(=O)c4ccccc4F)CC[C@@H]32)C1 [Example 42] in terms of IC50 is 100 to 1000 nM

The reported value for CCOC[C@@]1(O)CC[C@H]2[C@H](CC[C@@H]3[C@@H]2CC[C@]2(C)[C@@H]([C@@H](Nc4ccc(C#N)cc4C)C(F)(F)F)CC[C@@H]32)C1 [Example 488] in terms of IC50 is 1000 to 10000 nM

The reported value for COC[C@@]1(O)CC[C@H]2[C@H](CC[C@@H]3[C@@H]2CC[C@]2(C)[C@@H]([C@H](C)Cc4cnc(C)cn4)CC[C@@H]32)C1 [Example 423] in terms of IC50 is 100 to 1000 nM

The reported value for Cc1cnc(C[C@@H](C)[C@H]2CC[C@H]3[C@@H]4CC[C@@H]5C[C@](C)(O)CC[C@@H]5[C@H]4CC[C@]23C)cn1 [Example 440] in terms of IC50 is < 100 nM

The reported value for Cc1cnc(C[C@@H](C)[C@H]2CC[C@H]3[C@@H]4CC[C@@H]5C[C@](C)(O)CC[C@@H]5[C@H]4CC[C@]23C)s1 [Example 431] in terms of IC50 is 100 to 1000 nM

The reported value for CCC[C@@]1(O)CC[C@H]2[C@H](CC[C@@H]3[C@@H]2CC[C@@]2(C)[C@H]3CC[C@]2(O)[C@H](C)Cn2cc(C#N)cn2)C1 [Example 348] in terms of IC50 is 1000 to 10000 nM

***
The reported value for C[C@H](Cn1nccn1)[C@H]1CC[C@H]2[C@@H]3CC[C@H]4C[C@](C)(O)CC[C@@H]4[C@H]3CC[C@]12C [Example 58] in terms of IC50 is 1000 to 10000 nM

The reported value for CCC[C@@]1(O)CC[C@@]2(C)[C@H](CC[C@@H]3[C@@H]2CC[C@]2(C)[C@@H]([C@@H](C)Cn4nnc(C)n4)CC[C@@H]32)C1 [Example 313] in terms of IC50 is < 100 nM

The reported value for CCOC[C@@]1(O)CC[C@H]2[C@H](CC[C@@H]3[C@@H]2CC[C@]2(C)[C@@H]([C@H](C)Cc4cccc(C#N)n4)CC[C@@H]32)C1 [Example 412] in terms of IC50 is 100 to 1000 nM

The reported value for COC[C@@]1(O)CC[C@H]2[C@H](CC[C@@H]3[C@@H]2CC[C@]2(C)[C@@H]([C@@H](C)Nc4ccc(C#N)nc4)CC[C@@H]32)C1 [Example 258] in terms of IC50 is 100 to 1000 nM

The reported value for C[C@H]([C@H]1CC[C@H]2[C@@H]3CC[C@@H]4C[C@](C)(O)CC[C@@H]4[C@H]3CC[C@]12C)N1Cc2cc(C#N)ccc2C1=O [Example 40] in terms of IC50 is < 100 nM

The reported value for COC[C@@]1(O)CC[C@@]2(C)[C@H](CC[C@@H]3[C@@H]2[C@H](O)C[C@]2(C)[C@@H]([C@@H](C)Cn4cc(C#N)cn4)CC[C@@H]32)C1 [Example 283] in terms of IC50 is 100 to 1000 nM

The reported value for CCOC[C@@]1(O)CC[C@H]2[C@H](CC[C@@H]3[C@@H]2CC[C@]2(C)[C@@H]([C@@H](C)Nc4ccc(-n5ccc(C#N)n5)nc4)CC[C@@H]32)C1 [Example 264] in terms of IC50 is 100 to 1000 nM

The reported value for COC[C@@]1(O)CC[C@@]2(C)[C@H](CC[C@@H]3[C@@H]2CC[C@@]2(C)[C@H]3CC[C@]2(O)[C@@H](C)Cn2cc(C#N)cn2)C1 [Example 351] in terms of IC50 is 1000 to 10000 nM

The reported value for CCC[C@@]1(O)CC[C@@]2(C)[C@H](CC[C@@H]3[C@@H]2CC[C@]2(C)[C@@H]([C@@H](C)Cn4cc(C#N)cn4)CC[C@@H]32)C1 [Example 307] in terms of IC50 is < 100 nM

The reported value for Cc1cc(C#N)ccc1N[C@H](C)[C@H]1CC[C@H]2[C@@H]3CC[C@@H]4C[C@](C)(O)CC[C@@H]4[C@H]3CC[C@]12C [Example 250] in terms of IC50 is < 100 nM
